Tested on: 4T1 mouse mammary breast cancer cells
Test: Example O: syngeneic 4T1 breast cancer growth in Balb/C mice
Assay type: in vivo
Conditions: 4T1 in female Balb/C mice, 120 μmol/kg/day oral; final vs initial body weight
Experimental: Cancer models in mice generally either involve syngeneic murine tumors in immunocompetent mice or xenografts of human tumors in immunocompromised mice. […] Mice received test compounds by oral gavage in 1% hydroxypropylmethylcellulose from day 2 until day 30. Tumor growth was assessed by caliper measurements twice per week and tumor weight after necropsy, and body weight was also monitored. Treatment groups were: • 1. […] HPMC) • 2. CI (120 μmol/kg/day) • 3. BA (120 μmol/kg/day) • 4. […]
measurement_type: Δ BW % (%)
Kindly provide the numeric value in % only, without the unit symbol.

// solved cases for Δ BW % follow
[
  {
    "compound": "CCCCCCOc1ccccc1OCCNc1ccnc2ccccc12",
    "units_symbol": "%",
    "Δ BW %": "−0.0"
  },
  {
    "compound": "CCCCCCOc1cccc(CNc2ccnc3ccccc23)c1 [Compound AC, N-[3-(Hexyloxy)benzyl]quinolin-4-amine]",
    "units_symbol": "%",
    "Δ BW %": "−8.4"
  },
  {
    "compound": "CCCCCCOc1ccccc1OCCCNc1ccnc2ccccc12",
    "units_symbol": "%",
    "Δ BW %": "−2.0"
  },
  {
    "compound": "CCCCCCOc1ccc(OCCNc2ccnc3ccccc23)cc1",
    "units_symbol": "%",
    "Δ BW %": "−2.7"
  },
  {
    "compound": "CCCCCCOc1ccc(CNc2ccnc3ccccc23)cc1 [AA, N-[4-(Hexyloxy)benzyl]quinolin-4-amine]",
    "units_symbol": "%",
    "Δ BW %": "−5.1"
  }
]

Q: Dear colleague, I am looking for the recorded Δ BW % of the following compound: CCCCOCCCCCCCCNc1ccnc2ccccc12
Result: −5.5

---

Tested on: EAE induced by PLP139-151
Experiment: Example G: Experimental Autoimmune Encephalitis (EAE) mouse model of multiple sclerosis
Type: in vivo
Settings: 60 μmol/kg by oral gavage from Day 14, score 0-5
Listed compounds paired with reported EAE Score on Day 46
// return a plain number; no unit text

// solved cases for EAE Score on Day 46 follow
[
  {
    "compound": "CN(C(=O)c1c(O)c2ccccc2n(C)c1=O)c1ccccc1 [Linomide, reference compound]",
    "measurement_type": "EAE Score on Day 46",
    "value_observed": 2.29
  },
  {
    "compound": "CCCCCCOc1ccc(OCCCCNc2ccnc3ccccc23)cc1 [CZ]",
    "measurement_type": "EAE Score on Day 46",
    "value_observed": 2.29
  },
  {
    "compound": "CCCCCCOc1ccccc1OCCNc1ccnc2ccccc12 [CP]",
    "measurement_type": "EAE Score on Day 46",
    "value_observed": 1.86
  }
]

Next item in the queue.
Q: Dear colleague, I am looking for the recorded EAE Score on Day 46 of the following compound: CCCCCCOc1cccc(OCCCNc2ccnc3ccccc23)c1 [AZ]
Result: 2.50

---

Listed compounds paired with reported MIC
Test system: Cryptococcus neoformans strains
Assay: Example N: MIC and MFC (CLSI) against Cryptococcus neoformans
Type: cell-based
Conditions: Cryptococcus neoformans, read-out: MIC 100%, Range; incubated for 72 hrs, three clinical strains

[
  {
    "compound": "CCCCCCCCCCNc1ccnc2ccccc12 [Compound AG, N-(Decyl)quinolin-4-amine]",
    "MIC": "4 µg/mL"
  }
]

Q: Dear colleague, I am looking for the recorded MIC of the following compound: CCCCCCOc1cccc(CNc2ccnc3ccccc23)c1 [Compound AC, N-[3-(Hexyloxy)benzyl]quinolin-4-amine]
Result: 0.25 to 4 µg/mL

Q: Now this one: CCCCOCCCCCCCCCCNc1ccnc2ccccc12 [AM, N-(10-Butoxydecyl)quinolin-4-amine]
Result: 2 to 4 µg/mL

Q: Now this one: CCCCCCOCCCCCCCCNc1ccnc2cc(Cl)ccc12 [AW]
Result: 2 µg/mL

---

Test system: 4T1 murine breast cancer cells
Assay: Example S: in vitro anticancer screen, 4T1 cells, Wst1
Format: cell-based, mouse
Conditions: Mus musculus, 4T1, 18 h, 5 μM, 18 hr, Wst1; read-out: 4T1 5 μM, percent of cancer cell survival relative to vehicle treated cells
Listed molecules paired with reported viability at 5 µM
Kindly provide the numeric value in % only, without the unit symbol.

// solved cases for viability at 5 µM follow
[
  {
    "molecule": "CCCCCCOCCCCCCCCNc1cc(C(F)(F)F)nc2ccccc12",
    "viability at 5 µM / %": 89.8
  },
  {
    "molecule": "CCCCCCOc1ccccc1OCCCCNc1ccnc2ccccc12",
    "viability at 5 µM / %": 31.8
  },
  {
    "molecule": "CCCCCCOCCCCCCCCn1cnc2ccccc21 [CC, 1-[8-(Hexyloxy)octyl]-1H-benzimidazole]",
    "viability at 5 µM / %": 99.5
  },
  {
    "molecule": "CCCCCCOCCCCCCCCNc1ccnc2ccccc12 [CH, N-[8-(Hexyloxy)octyl]quinolin-4-amine]",
    "viability at 5 µM / %": 27.2
  }
]

Next item in the queue.
Q: Dear colleague, I am looking for the recorded viability at 5 µM of the following molecule: COCCCCCCCCNc1ccncc1
Result: 79.4

---

Test system: PC-3 prostate cancer cells
Assay: Example T: sensitisation of PC-3 cells to doxorubicin, oxaliplatin, paclitaxel or vincristine, Wst1
Assay type: cell-based, human
Settings: PC-3 cells; compound 0.4 μM + vincristine 100 nM; 72 hours; chemotherapy agent alone normalized to 100%
Listed compounds paired with reported Vincristine 100 nM: percent cell survival
Kindly provide the numeric value in % only, without the unit symbol.

// solved cases for Vincristine 100 nM: percent cell survival follow
[
  {
    "compound": "CCCCOCCCCCCNc1ccnc2ccccc12 [CL, N-(6-Butoxyhexyl)quinolin-4-amine]",
    "value_observed": 27.7
  },
  {
    "compound": "Cc1cccc(OCCCCCCCCNc2ccnc3ccccc23)c1 [BE, N-[8-(m-Tolyloxy)octyl]quinolin-4-amine]",
    "value_observed": 74.9
  },
  {
    "compound": "COc1ccc(C(=O)NCCCCCCCCNc2ccnc3ccccc23)cc1 [EA]",
    "value_observed": 84.5
  }
]

Q: Dear colleague, I am looking for the recorded Vincristine 100 nM: percent cell survival of the following compound: CC(C)(C)c1ccc(OCCCCCCCCNc2ccnc3ccccc23)cc1 [DA]
Result: 19.1

Q: Now this one: CCCCCCOc1ccc(Nc2ccnc3ccccc23)c(F)c1 [BL]
Result: 111.2

Q: Now this one: Fc1ccc(OCCCCCCCCNc2ccnc3ccccc23)cc1 [BJ]
Result: 50.8

Q: Now this one: CCCCCCOCCCCCCCCNc1ncnc2ccccc12 [EW, N-[8-(Hexyloxy)octyl]quinazolin-4-amine]
Result: 14.8

Q: Now this one: c1ccc2c(NCCCCCCCCNc3ccnc4ccccc34)ccnc2c1 [Compound AI]
Result: 64.9

Q: Now this one: Fc1cccc(OCCCCCCCCNc2ccnc3ccccc23)c1 [BI]
Result: 81.7

---

Listed compounds paired with reported viability at 5 µM
Tested on: 4T1 murine breast cancer cells
Assay: Example S: in vitro anticancer screen, 4T1 cells, Wst1
Type: cell-based, mouse
Conditions: Mus musculus, 4T1, 18 h, 5 μM, 18 hr, Wst1; read-out: 4T1 5 μM, percent of cancer cell survival relative to vehicle treated cells

[
  {
    "compound": "CCCCCC(=O)Nc1ccc(Nc2ccnc3ccccc23)cc1",
    "viability at 5 µM": "94.7%"
  },
  {
    "compound": "c1ccc(Oc2ccc(Nc3ccnc4ccccc34)cc2)cc1",
    "viability at 5 µM": "104%"
  },
  {
    "compound": "COCCNc1ccnc2ccccc12",
    "viability at 5 µM": "122%"
  },
  {
    "compound": "CN(C)c1ccc(CNc2ccnc3ccccc23)cc1",
    "viability at 5 µM": "116%"
  },
  {
    "compound": "c1ccc(COc2cccc(Nc3ccnc4ccccc34)c2)cc1 [DM, N-[3-(Benzyloxy)phenyl]quinolin-4-amine]",
    "viability at 5 µM": "47.8%"
  },
  {
    "compound": "CCCCCCCCCCCCCCCc1nc2c(O)nc3ccccc3c2n1CC(C)C",
    "viability at 5 µM": "112%"
  },
  {
    "compound": "CCCCCCCCCCOCCCn1cnc2cnc3ccccc3c21",
    "viability at 5 µM": "56.6%"
  },
  {
    "compound": "CCCCCCCCCCCCOCCn1cnc2c(N(C)C)nc3ccccc3c21",
    "viability at 5 µM": "102%"
  },
  {
    "compound": "CCCCCCCCn1cnc2cnc3ccccc3c21 [BP, 1-Octyl-1H-imidazo[4,5-c]quinoline]",
    "viability at 5 µM": "23.3%"
  },
  {
    "compound": "COCCCCCCCCNc1ccnc2ccccc12",
    "viability at 5 µM": "24.1%"
  }
]

Q: Dear colleague, I am looking for the recorded viability at 5 µM of the following compound: CCOCc1nc2cnc3ccccc3c2n1CC(C)(C)O
Result: 90%
